test system: OVCAR-8 ovarian; test: NCI tumour cell line growth inhibition, 48 h; in the data active = GI50 below about 0.43 µM; inactive = the rest
Tick one outcome: active, inactive

{"molecule": "Cc1cc(O)c(C2=NN(c3ccc(S(N)(=O)=O)cc3)C(c3ccccc3O)C2)cc1Cl (stereo not given)", "label-class": "inactive"}
{"molecule": "OC(COc1cccc2ccccc12)CN1CCN(c2ccc(Cl)cc2)CC1 (stereo not given)", "label-class": "inactive"}
{"molecule": "COc1cc(/C=C2\\CCCC3C2=Nc2ccccc2NC3c2cc(OC)c(OC)c(OC)c2)cc(OC)c1OC (stereo not given)", "label-class": "active"}
{"molecule": "COc1cc(CNc2nc3cc(N)cc(N)c3nc2-c2ccccc2)cc(OC)c1OC", "label-class": "inactive"}

Proceed to the following item.
Q) Answer briefly: the call reported for "CSC1=Nc2c(c(C)c(-c3ccccc3)n2CCCCl)C2=NC(=O)CN12" in this assay.
A) inactive
